Test system: MCF7
Experiment: Cytotoxicity against human MCF7 cells assessed as reduction in cell viability incubated for 72 hrs by alamar blue assay
Type: functional, cell-based
Details: MCF7, 72 h
property_measured: pIC50
Reminder that pIC50 means the negative base-10 logarithm of the concentration expressed in mol/L.

-- ask Recorded pIC50 for Clc1nss/c1=N\c1ccc2c(c1)OCO2 , please?
-- reply 4.72

-- ask // next record O=S(=O)(Nc1ncccn1)c1ccc(/N=c2\ssnc2Cl)cc1
-- reply 5.52

-- ask And then N#CC1=Nc2c(c(-c3ccccc3)nn2-c2ccccc2)SS1 , what is it?
-- reply 4.44

* * *

System: DU-145
Experiment: Cytotoxicity against human DU-145 cells assessed as reduction in cell viability incubated for 72 hrs by alamar blue assay
Type: functional, cell-based
Conditions: DU-145, 72 h
property_measured: log10(IC50) (log10 of the value in µM)
A difference of one corresponds to tenfold IC50; all values are log10 with IC50 in µM.

-- ask Give recorded log10(IC50) with DU-145 for the following compound: CC.FC(F)(F)Oc1ccc(/N=c2\ssnc2Cl)cc1Cl
-- reply 1.51

-- ask Same read-out for N#CC1=Nc2c(c(-c3ccccc3)nn2Cc2ccccc2)SS1 ?
-- reply 1.51

-- ask Entry Cc1cc(/N=c2\ssnc2Cl)n[nH]1 please
-- reply 1.15

-- ask Here is the next compound: N#CSCCN1CCN(c2nssc2=O)CC1
-- reply 0.52

-- ask Then c1ccc(/N=c2\ssnc2N2CCN(CCNc3ccccc3)CC2)cc1 ?
-- reply 1.74

-- ask Now consider Cc1nn(C)c2c1SSC(C#N)=N2 .
-- reply 1.60

-- ask Same again, this time with O=C1c2ccccc2C(=O)N1CCN1CCN(c2nssc2=S)CC1
-- reply 1.36

-- ask // query: Clc1nss/c1=N\c1ccc(Br)cc1
-- reply 1.68

-- ask Then this compound: O=C(OCCN1CCN(c2nss/c2=N\c2ccccc2)CC1)c1ccccc1
-- reply 1.48

-- ask Cool, now FC(F)(F)Oc1ccc(/N=c2\ssnc2Cl)cc1Br
-- reply 1.72

-- ask And Cc1cc(/N=c2\ssnc2Cl)n(Cc2ccccc2)n1 ?
-- reply 1.00

-- ask Please answer likewise for N#Cc1c(Br)cccc1/N=c1\ssnc1Cl
-- reply 1.62

-- ask Next: CCCCOc1ccc(/N=c2\ssnc2Cl)cc1
-- reply 1.72

-- ask Likewise for N#CSCCN1CCN(c2nss/c2=N\c2ccccc2)CC1 ?
-- reply 1.15

-- ask # repeat for N#Cc1cc(Br)ccc1/N=c1\ssnc1N1CCN(CCCl)CC1
-- reply 1.18

-- ask Next compound up: Clc1nss/c1=N\c1cc(-c2ccccc2)n[nH]1
-- reply 1.04

-- ask Cool, now O=S(=O)(Nc1ncccn1)c1ccc(/N=c2\ssnc2Cl)cc1
-- reply 1.46

-- ask Item: Clc1nss/c1=N\c1cc(-c2ccccc2)nn1Cc1ccccc1
-- reply 1.15

-- ask Try this compound too: Clc1nss/c1=N\c1ccc2c(c1)OCO2
-- reply 1.23

-- ask Please do the same for N#CC1=Nc2c(c(-c3ccccc3)nn2-c2ccccc2)SS1 as well.
-- reply 1.20

-- ask Input Clc1nss/c1=N\c1nccs1
-- reply 0.91

-- ask Same read-out for O=c1ssnc1N1CCN(CCSc2nc3ccccc3s2)CC1 ?
-- reply 1.34

-- ask What do we get for CSc1ccc(/N=c2\ssnc2Cl)cc1 ?
-- reply 1.15

-- ask // next record CN(CCN1CCN(c2nssc2=O)CC1)c1ccccc1
-- reply 0.64

-- ask Can you check Cc1cc(OC(F)(F)F)ccc1/N=c1\ssnc1Cl next?
-- reply 1.26

These measurements were taken from ChEMBL document CHEMBL4819119.
